molecular target: CRF1R; assay: cell-based or functional assay
Ends that are not written are not given here.
Quantity name: CRF1R EC50 (nM)
State the answer as a number, implicitly in nM.

Write down CRF1R EC50 measured for item ZGPPISIDLPIFLLRKVIEIEKQEKEKQQAANNARLLARI (C-terminal amide) [SEQ ID NO 281]
1000

Note down CRF1R EC50 recorded for DNPSLSIDLPLILLRTLLELEKTQSQRERAEQNAIIFASV-NH2 [SEQ ID NO 345]
1000

Note down CRF1R EC50 recorded for NDDPPISIDLPFYLLRNMIEMARIENEREQAGLNAKYLAEV-NH2 [SEQ ID NO 261]
274
